Data provenance is ChEMBL document CHEMBL3414486.

System: DU-145
test.description: Selectivity index, ratio of IC50 for HAF to IC50 for human DU145 cells
measured.metric: Ratio IC50

INSERT INTO assay_data (compound, test_system, measured_metric, value_reported) VALUES
  ('C=C(C)[C@@H]1CC[C@]2(C(=O)O)CC[C@]3(C)[C@H](CC[C@@H]4[C@@]5(C)CC[C@H](NC(=O)CCC6CCNCC6)C(C)(C)[C@@H]5CC[C@]43C)[C@@H]12', 'DU-145', 'Ratio IC50', 1.6),
  ('C=C(C)[C@@H]1CC[C@]2(C(=O)O)CC[C@]3(C)[C@H](CC[C@@H]4[C@@]5(C)CC[C@H](NC(=O)CC6CCNCC6)C(C)(C)[C@@H]5CC[C@]43C)[C@@H]12', 'DU-145', 'Ratio IC50', 2.5),
  ('C=C(C)[C@@H]1CC[C@]2(C(=O)O)CC[C@]3(C)[C@H](CC[C@@H]4[C@@]5(C)CC[C@H](OC(=O)C6CCCNC6)C(C)(C)[C@@H]5CC[C@]43C)[C@@H]12 (stereo partly drawn)', 'DU-145', 'Ratio IC50', 0.5),
  ('C=C(C)[C@@H]1CC[C@]2(C(=O)O)CC[C@]3(C)[C@H](CC[C@@H]4[C@@]5(C)CC[C@H](NC(=O)C6CCNCC6)C(C)(C)[C@@H]5CC[C@]43C)[C@@H]12', 'DU-145', 'Ratio IC50', 1.8),
  ('C=C(C)[C@@H]1CC[C@]2(C(=O)O)CC[C@]3(C)[C@H](CC[C@@H]4[C@@]5(C)CC[C@H](O)C(C)(C)[C@@H]5CC[C@]43C)[C@@H]12', 'DU-145', 'Ratio IC50', 0.9),
  ('C=C(C)[C@@H]1CC[C@]2(C(=O)O)CC[C@]3(C)[C@H](CC[C@@H]4[C@@]5(C)CC[C@H](OC(=O)C6CCNCC6)C(C)(C)[C@@H]5CC[C@]43C)[C@@H]12', 'DU-145', 'Ratio IC50', 2.1),
  ('C=C(C)[C@@H]1CC[C@]2(C(=O)O)CC[C@]3(C)[C@H](CC[C@@H]4[C@@]5(C)CC[C@H](NC(=O)C6CCCNC6)C(C)(C)[C@@H]5CC[C@]43C)[C@@H]12 (stereo partly drawn)', 'DU-145', 'Ratio IC50', 1),
  ('C=C(C)[C@@H]1CC[C@]2(C(=O)O)CC[C@]3(C)[C@H](CC[C@@H]4[C@@]5(C)CC[C@H](NC(=O)CCCC6CCNCC6)C(C)(C)[C@@H]5CC[C@]43C)[C@@H]12', 'DU-145', 'Ratio IC50', 1.2);

====

Tested on: NCI/ADR-RES
test.description: Selectivity index, ratio of IC50 for HAF to IC50 for human MCF7/ADR cells
Attribute: Ratio IC50
measured.metric: Ratio IC50

INSERT INTO measurements (compound, test_system, measured_metric, value_reported) VALUES
  ('C=C(C)[C@@H]1CC[C@]2(C(=O)O)CC[C@]3(C)[C@H](CC[C@@H]4[C@@]5(C)CC[C@H](NC(=O)CC6CCNCC6)C(C)(C)[C@@H]5CC[C@]43C)[C@@H]12', 'NCI/ADR-RES', 'Ratio IC50', 3.1),
  ('C=C(C)[C@@H]1CC[C@]2(C(=O)O)CC[C@]3(C)[C@H](CC[C@@H]4[C@@]5(C)CC[C@H](OC(=O)C6CCNCC6)C(C)(C)[C@@H]5CC[C@]43C)[C@@H]12', 'NCI/ADR-RES', 'Ratio IC50', 9.7),
  ('C=C(C)[C@@H]1CC[C@]2(C(=O)O)CC[C@]3(C)[C@H](CC[C@@H]4[C@@]5(C)CC[C@H](NC(=O)C6CCCNC6)C(C)(C)[C@@H]5CC[C@]43C)[C@@H]12 (stereo partly drawn)', 'NCI/ADR-RES', 'Ratio IC50', 8.2);
